Source listed as patent US8629164B2.

- subjectOfTest: p50 (Homo sapiens)
- testSummary: TransAM NF-κB Family DNA Binding ELISA, p50
- assayConditions: p50 binding IC50 (uM), cells without % sign
Structures can show the parent of a compound that is named as a salt.
measureName: IC50

INSERT INTO results (compound, subjectoftest, reported) VALUES
  ('COc1nc2ccccc2cc1C(=O)NC1=CC(=O)C2OC2C1=O (racemic)', 'p50 (Homo sapiens)', '148 µM'),
  ('COc1ncccc1C(=O)NC1=CC(=O)C2OC2C1O (racemic) [Example 21, trifluoroacetate]', 'p50 (Homo sapiens)', '22 µM'),
  ('O=C(NC1=CC(=O)C2OC2C1=O)c1cc2ccccc2nc1O (racemic)', 'p50 (Homo sapiens)', '20 µM'),
  ('COc1c(C(=O)NC2=CC(=O)C3OC3C2O)ccc2cccnc12 (racemic) [Example 29]', 'p50 (Homo sapiens)', '129 µM');

* * *

- subjectOfTest: RelB (Homo sapiens, UniProt Q01201)
- Sequence (Q01201 whole entry): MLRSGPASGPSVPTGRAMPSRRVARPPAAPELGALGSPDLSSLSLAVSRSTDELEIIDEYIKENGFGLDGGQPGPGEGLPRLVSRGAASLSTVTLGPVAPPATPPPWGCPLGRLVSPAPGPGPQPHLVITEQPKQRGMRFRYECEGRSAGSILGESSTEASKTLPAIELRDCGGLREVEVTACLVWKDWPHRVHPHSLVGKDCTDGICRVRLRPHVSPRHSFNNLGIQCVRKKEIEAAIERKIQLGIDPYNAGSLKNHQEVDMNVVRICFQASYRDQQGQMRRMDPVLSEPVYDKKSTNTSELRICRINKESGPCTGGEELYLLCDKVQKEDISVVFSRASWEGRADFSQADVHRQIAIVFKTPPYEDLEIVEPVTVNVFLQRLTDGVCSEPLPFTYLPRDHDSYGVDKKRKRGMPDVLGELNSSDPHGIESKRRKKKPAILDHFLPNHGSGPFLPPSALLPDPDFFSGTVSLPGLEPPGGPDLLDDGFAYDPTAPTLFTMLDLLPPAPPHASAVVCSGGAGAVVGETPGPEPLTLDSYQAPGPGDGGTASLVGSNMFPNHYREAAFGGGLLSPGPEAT
- Sequence (Q00653 1-454 partner limits assumed): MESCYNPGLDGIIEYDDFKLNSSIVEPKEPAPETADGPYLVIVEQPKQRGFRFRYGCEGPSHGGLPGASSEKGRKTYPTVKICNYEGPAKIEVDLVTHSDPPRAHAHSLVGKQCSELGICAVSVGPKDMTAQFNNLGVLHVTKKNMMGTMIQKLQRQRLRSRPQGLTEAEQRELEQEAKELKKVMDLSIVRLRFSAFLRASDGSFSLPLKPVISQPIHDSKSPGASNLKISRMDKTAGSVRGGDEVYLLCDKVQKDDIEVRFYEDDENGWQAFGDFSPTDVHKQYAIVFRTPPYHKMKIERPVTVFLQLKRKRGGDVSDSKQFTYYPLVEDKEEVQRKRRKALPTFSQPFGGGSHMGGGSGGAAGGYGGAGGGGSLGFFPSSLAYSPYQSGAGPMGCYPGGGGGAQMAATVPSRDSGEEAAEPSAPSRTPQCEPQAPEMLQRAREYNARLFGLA
- testSummary: TransAM NF-κB Family DNA Binding ELISA, RelB
- assayConditions: RelB binding IC50 (uM), cells without % sign
Structures can show the parent of a compound that is named as a salt.
Overview of recorded log10(IC50) for various compounds
measureName: log10(IC50) (log10 of the value in µM)

INSERT INTO results (compound, reported) VALUES
  ('O=C(NC1=CC(=O)C2OC2C1O)c1cc2ccccc2nc1O (racemic)', 0.30),
  ('COc1nc2ccccc2cc1C(=O)NC1=CC(=O)C2OC2C1O (racemic)', -0.19),
  ('COc1ncccc1C(=O)NC1=CC(=O)C2OC2C1O (racemic) [Example 21, trifluoroacetate]', 0.18),
  ('O=C(NC1=CC(=O)C2OC2C1=O)c1cc2ccccc2nc1O (racemic)', 0.48),
  ('COc1nccnc1C(=O)NC1=CC(=O)C2OC2C1O (racemic)', 1.08),
  ('COc1c(C(=O)NC2=CC(=O)C3OC3C2O)ccc2cccnc12 (racemic)', 1.08),
  ('O=C(NC1=CC(=O)C2OC2C1O)c1cccnc1O (racemic)', 0.87),
  ('COc1ncccc1C(=O)NC1=CC(=O)C2OC2C1O (racemic) [Example 16]', 0.23);

* * *

- subjectOfTest: c-Rel (Homo sapiens)
- Sequence (Q04864 2-619 limits assumed): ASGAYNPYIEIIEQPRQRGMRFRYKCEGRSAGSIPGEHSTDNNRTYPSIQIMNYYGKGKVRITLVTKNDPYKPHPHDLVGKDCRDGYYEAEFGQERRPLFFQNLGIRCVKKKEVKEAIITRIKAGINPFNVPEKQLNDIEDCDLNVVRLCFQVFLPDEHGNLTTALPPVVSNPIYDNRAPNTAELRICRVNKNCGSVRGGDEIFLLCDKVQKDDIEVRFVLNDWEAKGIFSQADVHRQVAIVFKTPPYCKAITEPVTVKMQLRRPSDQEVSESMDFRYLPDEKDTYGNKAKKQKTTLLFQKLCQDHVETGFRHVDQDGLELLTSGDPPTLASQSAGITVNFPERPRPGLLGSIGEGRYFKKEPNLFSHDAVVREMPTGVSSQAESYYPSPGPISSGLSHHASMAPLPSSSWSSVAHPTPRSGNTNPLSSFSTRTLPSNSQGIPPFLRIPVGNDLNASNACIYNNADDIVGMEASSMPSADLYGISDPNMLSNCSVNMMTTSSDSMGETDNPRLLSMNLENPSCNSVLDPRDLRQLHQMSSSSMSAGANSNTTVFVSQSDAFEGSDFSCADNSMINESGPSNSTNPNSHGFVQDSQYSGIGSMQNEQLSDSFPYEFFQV
- testSummary: TransAM NF-κB Family DNA Binding ELISA, c-Rel
- assayConditions: at 5 uM
measureName: c-Rel binding % inhibit. at 5 uM

INSERT INTO assay_data (compound, measurename, reported) VALUES
  ('CS(=O)(=O)O.O=C(NC1=CC(=O)C2OC2C1O)c1ncccc1O (racemic)', 'c-Rel binding % inhibit. at 5 uM', '7%'),
  ('O=C(NC1=CC(=O)C2OC2C1O)c1ncccc1O.O=C(O)C(F)(F)F (racemic)', 'c-Rel binding % inhibit. at 5 uM', '15%'),
  ('O=C(NC1=CC(=O)C2OC2C1O)c1ncccc1O (racemic)', 'c-Rel binding % inhibit. at 5 uM', '15%'),
  ('Cc1ccc(S(=O)(=O)O)cc1.O=C(NC1=CC(=O)C2OC2C1O)c1ncccc1O (racemic)', 'c-Rel binding % inhibit. at 5 uM', '1%');

* * *

- subjectOfTest: UniProt P19838
- Sequence (P19838 1-433 limits assumed): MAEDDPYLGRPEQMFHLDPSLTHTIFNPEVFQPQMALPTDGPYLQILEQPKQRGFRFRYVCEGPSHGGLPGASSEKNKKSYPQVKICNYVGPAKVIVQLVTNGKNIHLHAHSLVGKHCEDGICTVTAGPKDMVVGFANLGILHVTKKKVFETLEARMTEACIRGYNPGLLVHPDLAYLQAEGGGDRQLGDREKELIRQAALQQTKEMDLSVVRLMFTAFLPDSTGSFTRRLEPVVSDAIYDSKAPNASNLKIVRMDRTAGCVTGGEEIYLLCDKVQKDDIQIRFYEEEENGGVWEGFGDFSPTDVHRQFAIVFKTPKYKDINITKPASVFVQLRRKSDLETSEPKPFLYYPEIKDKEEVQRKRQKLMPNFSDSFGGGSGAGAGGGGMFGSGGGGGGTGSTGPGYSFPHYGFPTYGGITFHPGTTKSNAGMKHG
- testSummary: TransAM NF-κB Family DNA Binding ELISA, p50
- assayConditions: p50 binding IC50 (uM), cells without % sign
Structures can show the parent of a compound that is named as a salt.
For each record, check the reported IC50: if it is below 100 µM write met, else write not met.

INSERT INTO assay_data (compound, classassignment) VALUES
  ('O=C(NC1=CC(=O)C2OC2C1O)c1ncccc1O (racemic)', 'not met'),
  ('COc1nccnc1C(=O)NC1=CC(=O)C2OC2C1O (racemic)', 'not met'),
  ('COc1nc2ccccc2cc1C(=O)NC1=CC(=O)C2OC2C1O (racemic)', 'met'),
  ('O=C(NC1=CC(=O)C2OC2C1O)c1cnccc1O (racemic)', 'not met'),
  ('O=C(NC1=CC(=O)C2OC2C1=O)c1ccncc1O (racemic)', 'met'),
  ('O=C(NC1=CC(=O)C2OC2C1O)c1cc2ccccc2nc1O (racemic)', 'met'),
  ('COc1ncccc1C(=O)NC1=CC(=O)C2OC2C1=O (racemic)', 'not met'),
  ('COc1c(C(=O)NC2=CC(=O)C3OC3C2O)ccc2cccnc12 (racemic) [Example 33, trifluoroacetate]', 'not met');

* * *

Overview of recorded IC50 for various compounds
- subjectOfTest: c-Rel (Homo sapiens, UniProt Q04864)
- testSummary: TransAM NF-κB Family DNA Binding ELISA, c-Rel
- assayConditions: c-Rel binding IC50 (uM), cells without % sign
Structures can show the parent of a compound that is named as a salt.
measureName: IC50 (µM)

INSERT INTO results (compound, measurename, reported) VALUES
  ('COc1nc2ccccc2cc1C(=O)NC1=CC(=O)C2OC2C1O (racemic) [Example 25]', 'IC50', 0.49),
  ('COc1c(C(=O)NC2=CC(=O)C3OC3C2O)ccc2cccnc12 (racemic) [Example 29]', 'IC50', 11),
  ('O=C(NC1=CC(=O)C2OC2C1O)c1cccnc1O (racemic) [Example 1]', 'IC50', 4.6),
  ('COc1ncccc1C(=O)NC1=CC(=O)C2OC2C1O (racemic) [Example 16]', 'IC50', 0.8),
  ('COc1ncccc1C(=O)NC1=CC(=O)C2OC2C1O (racemic) [Example 21, trifluoroacetate]', 'IC50', 1.1),
  ('COc1nccnc1C(=O)NC1=CC(=O)C2OC2C1O (racemic) [Example 26]', 'IC50', 14),
  ('O=C(NC1=CC(=O)C2OC2C1=O)c1cc2ccccc2nc1O (racemic) [Example 28]', 'IC50', 4.5),
  ('O=C(NC1=CC(=O)C2OC2C1O)c1cc2ccccc2nc1O (racemic) [Example 2]', 'IC50', 2.1);

* * *

- subjectOfTest: p50 (Homo sapiens, UniProt P19838)
- Sequence (P19838 1-433 limits assumed): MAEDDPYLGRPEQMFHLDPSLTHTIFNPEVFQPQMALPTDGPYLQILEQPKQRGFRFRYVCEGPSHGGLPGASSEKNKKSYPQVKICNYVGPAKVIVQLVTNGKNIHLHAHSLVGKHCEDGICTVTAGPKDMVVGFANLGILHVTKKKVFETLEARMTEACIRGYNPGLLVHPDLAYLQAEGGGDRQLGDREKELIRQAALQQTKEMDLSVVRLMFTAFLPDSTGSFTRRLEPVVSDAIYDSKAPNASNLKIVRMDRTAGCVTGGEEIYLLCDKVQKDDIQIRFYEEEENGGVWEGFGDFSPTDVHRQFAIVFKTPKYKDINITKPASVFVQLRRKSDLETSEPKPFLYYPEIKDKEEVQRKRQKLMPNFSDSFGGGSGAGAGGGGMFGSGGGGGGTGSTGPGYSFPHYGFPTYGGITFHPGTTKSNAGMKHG
- testSummary: TransAM NF-κB Family DNA Binding ELISA, p50
- assayConditions: p50 binding IC50 (uM), cells without % sign
Overview of recorded IC50 for various compounds
measureName: IC50 (µM)

INSERT INTO assay_data (compound, unitofmeasurement, resultmodifier, reported) VALUES
  ('O=C(NC1=CC(=O)C2OC2C1O)c1cccnc1O (racemic) [Example 1]', 'µM', '=', 26),
  ('COc1ncccc1C(=O)NC1=CC(=O)C2OC2C1O (racemic) [Example 16]', 'µM', '=', 20),
  ('COc1c(C(=O)NC2=CC(=O)C3OC3C2=O)ccc2cccnc12 (racemic) [Example 32]', 'µM', '>', 514),
  ('O=C(NC1=CC(=O)C2OC2C1O)c1cnc2ccc(Cl)cc2c1O (racemic) [Example 5]', 'µM', '>', 481),
  ('COc1cc2ccccc2nc1C(=O)NC1=CC(=O)C2OC2C1O (racemic) [Example 31]', 'µM', '=', 28);
